- SYSTEM TESTED: UniProt:P0DTD1
- ASSAY TEXT: biochemical
- DETAILS: read-out: % inhibition at 20 μM
Returns the class for an entry based on its inhibition at 20 µM. Class ranges: lower segment (below 20%), middle segment (20% to below 30%), upper segment (30% or more)

Exercise: Hi, small favor: classify CC(=O)OCC(=O)N(c1ccc(C(C)(C)C)cc1)C(C(=O)NC(C)(C)C)c1cccnc1 (stereo not shown) by its inhibition at 20 µM when you get a moment.
Key: lower segment

Exercise: Which of the defined bands does the recorded inhibition at 20 µM of CC1OC1C(=O)N(c1ccc(C(C)(C)C)cc1)C(C(=O)NC1CCCCC1)c1cccnc1 [(R, R, S)- and (S, S, R)-35] sit within?
Key: upper segment

Exercise: // bin(item) where item = CC(C)(C)NC(=O)C(c1cccnc1)N(C(=O)CO)c1ccc(C(C)(C)C)cc1 (stereo not shown)
Key: middle segment

Exercise: Form field 'band' for C=CC(=O)Nc1cccc(N(C(=O)c2ccco2)C(C(=O)NCc2ccccc2)c2cccnc2)c1 (stereo not shown)
Key: lower segment

Exercise: Bin this entry: CC(C)(C)NC(=O)C(c1cccnc1)N(C(=O)c1ccco1)c1ccc(CC2CO2)cc1 (stereo not shown)
Key: lower segment

Exercise: Hello team, could you let me know which band the following molecule falls into: CC(C)(C)NC(=O)C(c1cccnc1)N(C(=O)CCl)c1ccc(N)cc1 (stereo not shown)
Key: lower segment

Exercise: Bin? CC(C)(C)NC(=O)C(c1cccnc1)N(C(=O)C(=O)Cc1ccccc1)c1ccc(C(C)(C)C)cc1 (stereo not shown)
Key: lower segment

Exercise: // bin(item) where item = C=CC(=O)Nc1ccc(N(C(=O)c2ccco2)C(C(=O)NCc2ccccc2)c2cccnc2)cc1 (stereo not shown)
Key: middle segment

Exercise: Which inhibition at 20 µM band matches O=C(NCc1ccccc1)C(c1cccnc1)N(C(=O)c1ccco1)c1ccc(C2CO2)cc1 (stereo not shown) ?
Key: lower segment

Exercise: Tag the class for CC1(C(=O)N(c2ccc(C(C)(C)C)cc2)C(C(=O)NC2CCCCC2)c2cccnc2)CO1 (stereo not shown)
Key: middle segment

Exercise: Tag the class for Nc1ccc(N(C(=O)c2ccco2)C(C(=O)NCc2ccccc2)c2cccnc2)cc1 (stereo not shown)
Key: lower segment

Exercise: Hi there! Could you help me figure out the category for CC(C)(C)c1ccc(N(C(=O)C2CO2)C(C(=O)NCc2ccccc2)c2cccnc2)cc1 [(R, R)- and (S, S)-42] please?
Key: upper segment

Exercise: Kindly identify the class of O=C(Nc1ccc(N(C(=O)c2ccco2)C(C(=O)NCc2ccccc2)c2cccnc2)cc1)C(Cl)Cl (stereo not shown) .
Key: upper segment

Exercise: Input CC(C)(C)NC(=O)C(c1cccnc1)N(C(=O)C1OC1(C)C)c1ccc(C(C)(C)C)cc1 (stereo not shown) ; output its category
Key: upper segment

Exercise: Which inhibition at 20 µM category applies to O=C(CCl)Nc1cccc(N(C(=O)c2ccco2)C(C(=O)NCc2ccccc2)c2cccnc2)c1 (stereo not shown) here?
Key: upper segment

Exercise: Class? Entry: CC(C)(C)c1ccc(N(C(=O)CC#N)C(C(=O)NC2CCCCC2)c2cccnc2)cc1 (stereo not shown)
Key: middle segment

Exercise: Returns: class label. Input: CC(C)(C)c1ccc(N(C(=O)CCl)C(C(=O)NCc2ccccc2)c2cccnc2)cc1 (stereo not shown)
Key: upper segment

Exercise: Quick check: band for C=Cc1ccc(N(C(=O)c2ccco2)C(C(=O)NCc2ccccc2)c2cccnc2)cc1 (stereo not shown)
Key: middle segment

Exercise: Which of the defined bands does the recorded inhibition at 20 µM of CC(C)(C)NC(=O)C(c1cccnc1)N(C(=O)CCl)c1cccc(N)c1 (stereo not shown) sit within?
Key: upper segment

Exercise: Class? Entry: CC(C)(C)NC(=O)C(c1cccnc1)N(C(=O)C1(C)CO1)c1ccc(C(C)(C)C)cc1 (stereo not shown)
Key: middle segment

Exercise: Please report the category associated with CC(C)(C)NC(=O)C(c1cccnc1)N(C(=O)C1CO1)c1ccc(C(C)(C)C)cc1 [(R, R)- and (S, S)-38] , nothing else.
Key: middle segment

Exercise: Which band does Nc1cccc(N(C(=O)c2ccco2)C(C(=O)NCc2ccccc2)c2cccnc2)c1 (stereo not shown) fall in?
Key: lower segment

Exercise: Please report the category associated with O=C(CCl)Nc1ccc(N(C(=O)c2ccco2)C(C(=O)NCc2ccccc2)c2cccnc2)cc1 (stereo not shown) , nothing else.
Key: upper segment
